src = patent US10975068B2

target: UniProt P51449; assay: RORγt (full-length human) reporter assay, Conditions A; assay type: cell-based; conditions: HEK293T cells; read-out: RORγt (FL) Reporter Assay A, IC50
Sequence (P51449 other isoform, or with tags, fused parts or gaps): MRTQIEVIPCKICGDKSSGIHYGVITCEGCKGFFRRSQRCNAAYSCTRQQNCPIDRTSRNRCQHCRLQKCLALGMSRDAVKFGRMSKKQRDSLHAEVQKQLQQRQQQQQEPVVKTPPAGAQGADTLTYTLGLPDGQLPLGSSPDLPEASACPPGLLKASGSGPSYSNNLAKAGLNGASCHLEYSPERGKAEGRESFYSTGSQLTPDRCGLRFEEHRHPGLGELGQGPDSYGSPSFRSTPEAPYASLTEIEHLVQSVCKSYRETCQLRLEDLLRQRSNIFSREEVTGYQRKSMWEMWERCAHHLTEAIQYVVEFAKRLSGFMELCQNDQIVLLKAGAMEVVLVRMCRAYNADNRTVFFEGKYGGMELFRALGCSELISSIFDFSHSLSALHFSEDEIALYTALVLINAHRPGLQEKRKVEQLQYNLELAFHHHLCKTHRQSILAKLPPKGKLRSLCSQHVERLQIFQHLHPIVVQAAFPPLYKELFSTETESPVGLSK
Endpoint label: pIC50
Units for pIC50: none; it is -log10 of a concentration expressed in mol/L.

Asked: What value of pIC50 has been recorded for this entry: `CC(C)Nc1cc(C(F)(F)F)c(-c2sc(C(=O)NCC(C)(C)O)nc2C(=O)N2CCC(F)CC2)cn1`
Given back: 6.07

----------
molecular target: UniProt P51449; test: RORγt (full-length human) reporter assay, Conditions B or C; type: cell-based; settings: Conditions B or C; marked *: footnote not given
Endpoint label: RORγt (FL) Reporter Assay B or C, % inhibition (value marked *)

# annotated cases, reported RORγt (FL) Reporter Assay B or C, % inhibition (value marked *) shown
C[C@H](Nc1cc(C(F)(F)F)c(-c2sc(C(=O)NCC(C)(C)O)nc2C(=O)N2CCC[C@@H]2C)cn1)C(F)(F)F [Example 78]    110* %
C[C@H]1CCCN1C(=O)c1nc(C(=O)NCC2(O)CCC2)sc1-c1cnc(NC(C)(C)C)cc1C(F)(F)F [Example 134]    108* %
C[C@H]1CCCN1C(=O)c1nc(C(=O)N[C@H]2C[C@H](S(C)(=O)=O)C2)sc1-c1cnc(NC2CCCC2)cc1C(F)F [Example 72]    104* %

Consider the record given below.
Asked: What value of RORγt (FL) Reporter Assay B or C, % inhibition (value marked *) has been recorded for this entry: C[C@H]1CC(F)(F)CN1C(=O)c1nc(C(=O)NCC(C)(C)O)sc1-c1cnc(NC2(C(F)(F)F)CCC2)cc1C(F)F [Example 124]
Given back: 108* %
